B1: Membrane-associated guanylate kinase, WW and PDZ domain-containing protein 2, residues 601 to 682; numbered along this chain, Q86UL8 (parent)
chain: AELMTLTIVKGAQGFGFTIADSPTGQRVKQILDIQGCPGLCEGDLIVEINQQNVQNLSHTEVVDILKDCPIGSETSLIIHRG

- Variants of: B1
- Assay Details: abundance fitness (aPCA) (normalised: wild type 0, dead -1); higher = more abundant; growth selection in yeast, the domain comes from the species named
- Test Parameters: Homo sapiens
Classification field: enter Criterion met for abundance fitness values not below -0.1, Criterion not met for values below it.

>>> print(df.to_string())
    mutation_spec  qualitative_label
 0           P38K      Criterion met
 1           I78W  Criterion not met
 2           V62C      Criterion met
 3           G43T  Criterion not met
 4           T24G      Criterion met
 5           L77R  Criterion not met
 6           L32Y  Criterion not met
 7           V62W  Criterion not met
 8           V28T  Criterion not met
 9           T75M      Criterion met
10           C41F      Criterion met
11           N56E      Criterion met
12           D21E      Criterion met
13           C41K      Criterion met
14           R27H      Criterion met
15           I78M      Criterion met
16           N56A      Criterion met
17           L57W  Criterion not met
18           V62D  Criterion not met
19           T75Q  Criterion not met
20           H80P  Criterion not met
21           P23C      Criterion met
22           I49W  Criterion not met
23           P70Q      Criterion met
24           V62H  Criterion not met
25           S76C      Criterion met
26           G72N  Criterion not met
27           T24V      Criterion met
